measurement_protocol: Pharmacokinetic assay, intravenous 2 mg/kg, LC-MS/MS
Type: in vivo
experimental_conditions: mouse, plasma, CD1 mice
Where a SMILES comes first, the peptide text is derived from it. [ ]: non-standard residue; d: D form. The star is where a group is joined. NH(4-amidinobenzyl) = N=C(N)c1ccc(CN*)cc1
assay_metric: clearance (mL/min)
Answers are plain numbers, in mL/min.

Query: Tell me clearance reported for CC(=O)N[C@H](CC(C)C)C(=O)N[C@@H](CC(C)C)C(=O)N[C@@H](CC(C)C)C(=O)N[C@@H](CC(C)C)C(=O)N[C@@H](CCCNC(=N)N)C(=O)N[C@H](C(=O)N[C@@H](CCCCN)C(=O)NCc1ccc(C(=N)N)cc1)C(C)C [Ac-[DLeu]LLLRVK-Amba] (Ac-[dL]LLLRVK-{NH(4-amidinobenzyl)})
Response: 0.5
